Cited source for all entries: ChEMBL document CHEMBL4342410

Assay: Intrinsic clearance in human liver microsomes
Assay type: ADME, Microsome
Details: read-out: CLH
Listed below: microsomal CLint values for each entry.
READOUT_TYPE: microsomal CLint (µL/min/mg)

INSERT INTO results (mol, readout_type, value_unit, assay_value) VALUES
  ('Cc1ncc(NC(=O)c2cccc(C(F)(F)F)c2)cc1-c1c[nH]c(=O)c(N2CCOCC2)c1', 'microsomal CLint', 'µL/min/mg', 9.4),
  ('Cc1ccc(NC(=O)c2ccnc(C(F)(F)F)c2)cc1-c1cc(NCCO)nc(N2CCOCC2)c1', 'microsomal CLint', 'µL/min/mg', 20.5),
  ('[2H]C1(Oc2ncc(-c3cc(NC(=O)c4cccc(C(F)(F)F)c4)cnc3C)cc2N2CCOCC2)CCOCC1', 'microsomal CLint', 'µL/min/mg', 88),
  ('Cc1ccc(NC(=O)c2ccnc(C(F)(F)F)c2)cc1-c1cc(OCCO)nc(N2CCOCC2)c1', 'microsomal CLint', 'µL/min/mg', 13.5);

---

Test: Cmax in rat at 4 mg/kg, po
Format: ADME, organism-based
Set-up: dose 4 mg/kg, route oral
Details: in vivo
READOUT_TYPE: Cmax (nM)

INSERT INTO assay_data (mol, assay_value) VALUES
  ('Cc1ccc(NC(=O)c2ccnc(C(F)(F)F)c2)cc1-c1cc(OCCO)nc(N2CCOCC2)c1', 500);

---

Experiment: Tmax in nude rat xenografted with human Calu6 cells harboring KRAS Q61K mutant at 150 mg/kg, po administered daily for 18 days starting from day 13 post tumor implantation and measured on day 31
Type: ADME, organism-based
Settings: in vivo
READOUT_TYPE: Tmax

INSERT INTO measurements (mol, assay_value) VALUES
  ('Cc1ccc(NC(=O)c2ccnc(C(F)(F)F)c2)cc1-c1cc(OCCO)nc(N2CCOCC2)c1', '5.5 h');

---

Assay: Clearance in rat at 2 mg/kg, iv or 4 mg/kg, po
Assay type: ADME, organism-based
Conditions: in vivo
READOUT_TYPE: clearance (mL/min/kg)

INSERT INTO results (compound, readout_type, assay_value) VALUES
  ('Cc1ccc(NC(=O)c2ccnc(C(F)(F)F)c2)cc1-c1cc(OCCO)nc(N2CCOCC2)c1 [NAPORAFENIB]', 'clearance', 31);

---

Assay: Volume of distribution at steady state in rat at 2 mg/kg, iv or 4 mg/kg, po
Type: ADME, organism-based
Conditions: in vivo, read-out: Vdss
READOUT_TYPE: Vd

INSERT INTO results (mol, readout_type, assay_value) VALUES
  ('Cc1ccc(NC(=O)c2ccnc(C(F)(F)F)c2)cc1-c1cc(OCCO)nc(N2CCOCC2)c1', 'Vd', '5.4 L/kg');

---

Test: Oral bioavailability in mouse at 4 mg/kg
Type: ADME, organism-based
Conditions: in vivo
READOUT_TYPE: bioavailability (%)

INSERT INTO results (mol, readout_type, value_unit, assay_value) VALUES
  ('Cc1ccc(NC(=O)c2ccnc(C(F)(F)F)c2)cc1-c1cc(OCCO)nc(N2CCOCC2)c1', 'bioavailability', '%', 65);

---

Experiment: Clearance in mouse at 2 mg/kg, iv or 4 mg/kg, po
Format: ADME, organism-based
Settings: in vivo
READOUT_TYPE: clearance (mL/min/kg)

INSERT INTO assay_data (compound, readout_type, assay_value) VALUES
  ('Cc1ccc(NC(=O)c2ccnc(C(F)(F)F)c2)cc1-c1cc(OCCO)nc(N2CCOCC2)c1 [NAPORAFENIB]', 'clearance', 19);
